The values you see were collected from ChEMBL document CHEMBL5620366.

I'd appreciate it if you could supply AUC values for the items below.
test_description: AUC (0 to infinity) in ICR mouse at 10 mg/kg, iv measured for 24 hrs by LC-MS/MS analysis
Type: ADME, organism-based
particulars: in vivo
One number for each entry, in ng·h/mL.

Please review the following examples before continuing.
CC(C)(C)[C@H](NC(=O)C(F)(F)F)C(=O)N1[C@@H]2CC[C@@H](C2)[C@H]1C(=O)N[C@@H](C[C@@H]1CCNC1=O)C(=O)c1nc2ccccc2s1 | 2284
CC(C)(C)[C@H](NC(=O)C(F)(F)F)C(=O)N1C[C@H]2[C@@H]([C@H]1C(=O)N[C@H](C#N)C[C@@H]1CCNC1=O)C2(C)C | 2241
O=C1NCC[C@H]1C[C@H](NC(=O)[C@@H]1[C@H]2CC[C@H](C2)N1C(=O)[C@@H](NS(=O)(=O)C(F)(F)F)C12CC3CC(CC(C3)C1)C2)C(=O)c1nc2ccccc2s1 | 34308

Pending compound:
Please indicate AUC recorded for CC(C)(C)[C@H](NS(=O)(=O)C(F)(F)F)C(=O)N1[C@@H]2CC[C@@H](C2)[C@H]1C(=O)N[C@@H](C[C@@H]1CCNC1=O)C(=O)c1nc2ccccc2s1
3857
